Assay: Measurement of LogD (CHI logD by HPLC)
Type: physicochemical
Conditions: CHI log D, 50 mM ammonium acetate pH 7.4 / acetonitrile gradient, C-18 column, 25° C.
Protocol: Measurement of LogD: LogD values were measured on a Agilent 1260 HPLC with UV detector (254, 220 nm), using a Gemini NX C-18 50×3 mm column (Phenomenex) with a 6-minute 0-100% mobile phase gradient of A) 50 mM ammonium acetate pH 7.4 and B) Acetonitrile at 25° C. with a flow rate of 1 mL/min and injection volume of 3-5 uL.
Each item that follows carries a reported chromatographic logD.
The answer should be written as a number, with no unit following it.

MOL | chromatographic logD
CC(C)C[C@@H]1NC(=O)[C@H](C)NC(=O)[C@H](C)NC(=O)[C@H](Cc2c[nH]c3ccccc23)NC(=O)[C@H](CCC(=O)O)NC(=O)[C@@H](NC(=O)[C@H](CCCNC(=N)N)NC(=O)[C@H](Cc2c[nH]cn2)NC(=O)[C@@H](NC(=O)[C@H](C)NC(=O)[C@@H]2CCCN2C(=O)[C@H](CC(=O)O)NC(=O)[C@H](C)N)[C@@H](C)O)CSCC(=O)Nc2cc(F)c(cc2F)NC(=O)CSC[C@@H](C(=O)N[C@@H](CCC(=O)O)C(=O)N[C@@H](CC(C)C)C(=O)N[C@H](C(N)=O)C(C)C)NC(=O)[C@H](Cc2c[nH]cn2)NC1=O | 0.61

# evaluate next
The recorded chromatographic logD for entry "CC(C)C[C@@H]1NC(=O)[C@H](C)NC(=O)[C@H](C)NC(=O)[C@H](Cc2c[nH]c3ccccc23)NC(=O)[C@H](CCC(=O)O)NC(=O)[C@@H](NC(=O)[C@H](CCCNC(=N)N)NC(=O)[C@H](Cc2c[nH]cn2)NC(=O)[C@@H](NC(=O)[C@H](C)NC(=O)[C@@H]2CCCN2C(=O)[C@H](CC(=O)O)NC(=O)[C@H](C)N)[C@@H](C)O)CSCC(=O)O[C@@H]2C=C[C@@H](C2)OC(=O)CSC[C@@H](C(=O)N[C@@H](CCC(=O)O)C(=O)N[C@@H](CC(C)C)C(=O)N[C@H](C(N)=O)C(C)C)NC(=O)[C@H](Cc2c[nH]cn2)NC1=O" equals 0.75

###

Test: Measurement of LogD (CHI logD by HPLC)
Type: physicochemical
Details: CHI log D, 50 mM ammonium acetate pH 7.4 / acetonitrile gradient, C-18 column, 25° C.
Procedure: Measurement of LogD: LogD values were measured on a Agilent 1260 HPLC with UV detector (254, 220 nm), using a Gemini NX C-18 50×3 mm column (Phenomenex) with a 6-minute 0-100% mobile phase gradient of A) 50 mM ammonium acetate pH 7.4 and B) Acetonitrile at 25° C. with a flow rate of 1 mL/min and injection volume of 3-5 uL.
No end group written: not given here.
PROPERTY: chromatographic logD

SUBSTANCE | chromatographic logD
GPAKPEAPGEDASPQELHDYYEILDNYLDWVA-NH2 (C-terminus assumed) [Compound 26] | 0.87

P: GPAKPEAPGEDASPDELYHYYTHLEEYLYDVA-NH2 (C-terminus assumed) [Compound 17]
Q: GPAKPEAPGEDASPDELRMYYHELDNYLDQVA-NH2 (C-terminus assumed) [Compound 21]
R: GPAKPEAPGEDASPLELNLYYLDLHDYLQQVA-NH2 (C-terminus assumed) [Compound 30]
Output the entries ranked by chromatographic logD from maximum down to minimum. Write the labels in rank order as requested. R, P, Q

P: GPAKPEAPGEDASPEELYHYYWDLDDYLDRVA-NH2 (C-terminus assumed) [Compound 28]
Q: GPAKPEAPGEDASPDELHTYYDTLYHYLTSVA-NH2 (C-terminus assumed) [Compound 22]
Compare chromatographic logD: is it lower for P or for Q ? Which one? Tell me its label. P
